target: T1, p5 peptide of EGFL7 (human); experiment: SPR (Biacore), IgG over immobilized P5 peptide at 37 C;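 further: IgG variants injected at 0.5–1000 nM (2-fold series), 3 min association and 3.5 min dissociation, reference flow cell subtracted, kinetics fitted with a 1:1 Langmuir model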
T1 construct: also called Peptide P5
T1 peptide: RACSTYRTIYRTA
kon values, listed per item

Consider the reported kon for these binders:
18F7.v8 IgG (antibody, V domains shown, IgG; Kabat numbering) VH: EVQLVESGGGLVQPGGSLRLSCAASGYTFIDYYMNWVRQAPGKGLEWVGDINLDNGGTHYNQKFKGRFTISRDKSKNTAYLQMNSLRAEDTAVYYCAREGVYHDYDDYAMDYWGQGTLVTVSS VL: DIQMTQSPSSLSASVGDRVTITCRTSQSLVHINGITYLHWYQQKPGKAPKLLIYRVSNRFSGVPSRFSGSGSGTDFTLTISSLQPEDFATYYCVQSTHVPLTFGQGTKVEIK; 472000 M⁻¹ s⁻¹
18F7.v6J IgG (antibody, V domains shown, IgG; Variant of 18F7.v6) VH: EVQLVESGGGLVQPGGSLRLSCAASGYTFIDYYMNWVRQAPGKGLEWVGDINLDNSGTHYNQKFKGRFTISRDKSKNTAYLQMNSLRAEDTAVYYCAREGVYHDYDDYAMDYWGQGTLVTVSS VL: DIQMTQSPSSLSASVGDRVTITCRTSQSLVHINSITYLHWYQQKPGKAPKLLIYRVSNRFSGVPSRFSGSGSGTDFTLTISSLQPEDFATYYCGQSTHVPLTFGQGTKVEIK; 108000 M⁻¹ s⁻¹
18F7.v6E IgG (antibody, V domains shown, IgG; Variant of 18F7.v6) VH: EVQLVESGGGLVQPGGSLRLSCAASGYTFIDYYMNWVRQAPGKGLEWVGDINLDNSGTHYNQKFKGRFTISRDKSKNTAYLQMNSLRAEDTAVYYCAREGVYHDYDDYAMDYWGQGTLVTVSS VL: DIQMTQSPSSLSASVGDRVTITCRTSQSLVHISGITYLHWYQQKPGKAPKLLIYRVSNRFSGVPSRFSGSGSGTDFTLTISSLQPEDFATYYCGQSTHVPLTFGQGTKVEIK; 303000 M⁻¹ s⁻¹
18F7.v6I IgG (antibody, V domains shown, IgG; Variant of 18F7.v6) VH: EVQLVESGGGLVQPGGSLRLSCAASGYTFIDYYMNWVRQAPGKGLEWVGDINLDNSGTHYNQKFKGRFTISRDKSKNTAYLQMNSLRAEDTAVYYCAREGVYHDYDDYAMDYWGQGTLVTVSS VL: DIQMTQSPSSLSASVGDRVTITCRTSQSLVHIQGITYLHWYQQKPGKAPKLLIYRVSNRFSGVPSRFSGSGSGTDFTLTISSLQPEDFATYYCGQSTHVPLTFGQGTKVEIK; 190000 M⁻¹ s⁻¹

[in] For the binder 18F7.v4 IgG (antibody, name in Kabat numbering, V domains shown, IgG; Kabat numbering; also called 18F7-KV) VH: EVQLVESGGGLVQPGGSLRLSCAASGYTFIDYYMNWVRQAPGKGLEWVGDINLDNGGTHYNQKFKGRFTISRDKSKNTVYLQMNSLRAEDTAVYYCAREGVYHDYDDYAMDYWGQGTLVTVSS VL: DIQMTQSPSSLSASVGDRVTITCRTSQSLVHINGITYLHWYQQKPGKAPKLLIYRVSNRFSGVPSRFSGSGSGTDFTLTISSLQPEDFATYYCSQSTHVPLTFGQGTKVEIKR , give its reported kon.
[out] 182000 M⁻¹ s⁻¹
